# Species on record: Rattus norvegicus
# test.summary: Reduction in sterol level in CFE rat […] in serum at 0.1% of diet treated through diet for 6 days relative to control
# Type: functional
# Design: scale not given: the % may be the effect or the level left
result.type: Activity (%)
Numbers only, in %.

# annotated cases, reported Activity shown
* CCCCCCCCCCCCCCCCOc1c(Br)cc(C(=O)OC)cc1Br | 82
* CCCCCCCCCCC/C=C/CCCOc1ccc(C(=O)O)cc1 | 69
* CCCCOCCCCCCCCCCCOc1ccc(C(=O)O)cc1 | 97

// moving on: another record for Activity
Retrieve Activity measured for CCCCCCCCCCCC(O)CCOc1ccc(C(=O)O)cc1 (centres undefined) and print it.
116

###

# Species on record: Rattus norvegicus
# test.summary: Reduction in sterol level in CFE rat […] in serum at 0.1% of diet treated through diet for 6 days relative to control
# Assay type: functional
# Set-up: scale not given: the % may be the effect or the level left
result.type: Activity (%)
Answers are plain numbers, in %.

• CCCC[S+]([O-])CCCCCCCCCCCOc1ccc(C(=O)O)cc1 (stereo unspecified) = 102
• CCCCCCCCCCC/C=C/CCCOc1ccc(C(=O)OC)cc1 = 75
• CC(C)CCCC(C)CCCC(C)CCOc1ccc(C(=O)O)cc1 (stereo unspecified) = 87
• CCCCCCCC/C=C/CCCCCCCCOc1ccc(C(=O)OC)cc1 = 104
• CCCCCCCCCCCCCCCCOc1c(C)cc(C(=O)O)cc1C = 97

Retrieve Activity measured for CC[S+]([O-])CCCCCCCCCCCCCCCCOc1ccc(C(=O)O)cc1 (stereo unspecified) and print it.
94

###

# Organism: Rattus norvegicus
# test.summary: Reduction in triglyceride level in CFE rat […] in serum at 0.05% of diet treated through diet for 6 days relative to control
# Type: functional
# Design: scale not given: the % may be the effect or the level left
Everything with Activity lower than 80% is not met; everything else, including exactly 80%, is met.

Recorded results for 4 compounds are shown here.
* COC(=O)c1ccc(OCCCCCCCCCCCO)cc1 | met
* CCCCCCCCC/C=C/CCCOc1ccc(C(=O)O)cc1 | met
* COCCCCCCCCCCCOc1ccc(C(=O)O)cc1 | not met
* CCCCCCCCCCCC(=O)CCOc1ccc(C(=O)OC)cc1 | not met

Now, please, on to the next compound.
Check the entry `CCCCCCCCCC/C=C/CCCOc1ccc(C(=O)O)cc1` : does Activity equal or exceed 80%?
not met

###

# Species on record: Rattus norvegicus
# test.summary: Reduction in triglyceride level in CFE rat […] in serum at 0.05% of diet treated through diet for 6 days relative to control
# Assay type: functional
# Set-up: scale not given: the % may be the effect or the level left
Field: label. Allowed values: satisfied (Activity < 90%) or not satisfied (Activity >= 90%).

• CCCCSCCCCCCCCCCCOc1ccc(C(=O)OC)cc1 = satisfied

Activity strictly < 90% for this molecule? `COC(=O)c1ccc(OCCCCCCCCCCCCl)cc1`
satisfied

Activity strictly < 90% for this molecule? CCCCCCCCCCCCCCC(C)Oc1ccc(C(=O)O)cc1 (stereo unspecified)
satisfied

Activity strictly < 90% for this molecule? `CCS(=O)(=O)CCCCCCCCCCCCCCCCOc1ccc(C(=O)O)cc1`
satisfied

Activity strictly < 90% for this molecule? `CCCCCCCCCCCCCCCCOc1c(Br)cc(C(=O)OC)cc1[N+](=O)[O-]`
not satisfied

Activity strictly < 90% for this molecule? `O=C(O)c1ccc(OCCCCCCCCCCCS)cc1`
satisfied

Activity strictly < 90% for this molecule? `CCCCCCCCCCCCCC(C)(C)Oc1ccc(C(=O)O)cc1`
not satisfied

Activity strictly < 90% for this molecule? CCCC[S+]([O-])CCCCCCCCCCCOc1ccc(C(=O)O)cc1 (stereo unspecified)
satisfied

Activity strictly < 90% for this molecule? `COC(=O)c1ccc(OCCCCCCCCCCCCCCCO)cc1`
not satisfied

The measurements presented in this section are drawn from ChEMBL document CHEMBL3272177.
